Please provide measured solubility for the entries that follow.
procedureSummary: Solubility in 0.1 M sodium phosphate, and at pH 7.2
Format: physicochemical
measurementConditions: 0.1 M sodium phosphate buffer
Answers are plain numbers, in µM.

Guide cases for solubility, answers given:
compound	solubility (µM)
CCCn1c(=O)c2[nH]c(-c3ccc(OCC(=O)NCCN)cc3)nc2n(CCC)c1=O [XANTHINE AMINE CONGENER]	90
CCCn1c(=O)c2[nH]c(-c3ccc(OCC(N)=O)cc3)nc2n(CCC)c1=O	26

Here is another compound to look at.
// `CCCn1c(=O)c2nc(-c3ccc(O)cc3)[nH]c2n(CCC)c1=O` : solubility value = 3.2
